# Read-out: Transforming growth factor beta 1 (TGFb1), TGFB1 (gene 7040)
# Method Description: BSK_BE3C_TGFb1: BioMAP Diversity Plus: BE3C Assay for Transforming growth factor beta 1 (TGFb1) Biomarker Activity (AID 2283036)
# Protocol Conditions: primary human bronchial epithelial cells; actives raise or lower the signal
The source made the active and inactive calls. How the source made its calls: active means hit-call score of the fitted dose curve at least 0.9, where 1 is the maximum; inactive means score below 0.9.
// one of class 1 (active), class 0 (inactive), no free text

Answered cases to consult:
Prompt line: What call does the record list for "c1ccc(-c2cccc(-c3ccccc3)c2)cc1" ?
Response line: class 0

Prompt line: What did this assay record as the result for "Nc1c(Oc2ccccc2)cc(O)c2c1C(=O)c1ccccc1C2=O" ?
Response line: class 0

Prompt line: Please let me know the test result on file for "C[C@]12CC[C@@H](O)C[C@@H]1CC[C@@H]1[C@@H]2CC[C@]2(C)C(=O)CC[C@@H]12" .
Response line: class 0

Prompt line: What call does the record list for "O=S(=O)(C(Cl)(Cl)Cl)C(Cl)(Cl)Cl" ?
Response line: class 1

Prompt line: Which outcome did this test record for the molecule "CCOP(=S)(OCC)OP(=S)(OCC)OCC" ?
Response line: class 0

Prompt line: Hey, what did the test say about "CC(C)(C)c1cc([N+](=O)[O-])cc(C(C)(C)C)c1O" ?
Response line: class 0

Turning now to a further record.
Prompt line: How was "Cc1cc(C(C)(C)c2ccc(O)c(C)c2)ccc1O" classified in this test?
Response line: class 1

* * *

# Method Description: ATG_MRE_CIS: Attagene CIS-FACTORIAL HepG2 Assay for human Metal Responsive Element (MRE) (AID 2282954)
# Protocol Conditions: HepG2 MRE cis-reporter transcription, Attagene multiplex; actives raise or lower the signal
# Method: ATG_CIS is a cell-based, multiplexed-readout assay that uses HepG2, a human liver cell line, with measurements taken at 24 hours after chemical dosing in a 24-well plate.ATG_MRE_CIS is one of 52 assay component(s) measured or calculated from the ATG_CIS assay. […] This assay endpoint, ATG_MRE_CIS, was analyzed with bidirectional fitting relative to DMSO as the negative control and baseline of activity. […]
The source made the active and inactive calls. The calls were made as follows: active = hit-call score of the fitted dose curve at least 0.9, where 1 is the maximum; inactive = score below 0.9.
Pick one and only one: yes (1) (active), no (0) (inactive)

Prompt line: Please let me know the test result on file for O=C(NC(=O)c1c(F)cccc1F)Nc1cc(Cl)c(OC(F)(F)C(F)C(F)(F)F)cc1Cl (stereo unspecified) .
Response line: no (0)

Further cases:
Prompt line: For "O=c1[nH]c(=O)n(Cl)c(=O)n1Cl" , what call appears in the results of this test?
Response line: no (0)

Prompt line: Which outcome was entered for the molecule "CC(C)(C#N)N=NC(C)(C)C#N" in this test?
Response line: no (0)

Prompt line: What call does the record list for "O=C(N[C@H]1CN2CCC1CC2)c1ccc2c(c1)OCCO2" ?
Response line: no (0)

Prompt line: Look up the recorded call for "CC(C)(C)c1ccccc1O" in this test.
Response line: yes (1)

Prompt line: Which result was noted for this molecule in the test: "Cc1ccc2nc3sc(=O)sc3nc2c1"
Response line: no (0)

* * *

# Method Description: ATG_ERE_CIS: Attagene CIS-FACTORIAL HepG2 Assay for Estrogen Response Element (ERE) (AID 2282940)
# Protocol Conditions: HepG2 ERE cis-reporter, Attagene RNA transcript; actives raise or lower the signal
Calls of active or inactive are those of the source. The calls were made as follows: active = hit-call score of the fitted dose curve at least 0.9, where 1 is the maximum; inactive = score below 0.9.
In this exercise, the only acceptable responses are Y (active), N (inactive)

Worked examples, 6 molecules total:
Prompt line: Which outcome was entered for the molecule CC(C)=CC1C(C(=O)OCc2cccc(Oc3ccccc3)c2)C1(C)C (configuration not stated) in this test?
Response line: Y

Prompt line: Call for entry "OC(c1ccc(Cl)cc1)(c1ccc(Cl)cc1)c1cccnc1" :
Response line: N

Prompt line: Status in this test for "C=CCc1ccccc1O" ?
Response line: Y

Prompt line: Test call, this molecule: "O=C/C(Cl)=C(/Cl)C(=O)O"
Response line: N

Prompt line: Lab log entry: "Cc1ccc(OP(=O)(Oc2ccc(C)cc2C)Oc2ccc(C)cc2C)c(C)c1" — outcome as called in the assay?
Response line: Y

Prompt line: Short answer needed: outcome of this test for "CCOP(=O)(OCC)OC(=CCl)c1ccc(Cl)cc1Cl" ?
Response line: Y

Others:
Prompt line: Which outcome was assigned to "Cc1cc(C(F)(C(F)(F)F)C(F)(F)F)ccc1NC(=O)c1cccc(I)c1C(=O)NC(C)(C)CS(C)(=O)=O" in this test?
Response line: N

Prompt line: // param item: BrCC(Br)c1ccccc1 (configuration not stated) ; yields the recorded call
Response line: N

Prompt line: Hi, do you know how "FC(F)OCC(F)(F)C(F)(F)F" came out in this test?
Response line: N
